Target: IDE (Homo sapiens, UniProt P14735)
Construct: made in house; host or cells: bacteria
Experiment: biochemical
Conditions: insulin ELISA assay; dose-response; N=3; read-out: IC50s, Mean
Excerpt: The six selected peptide sequences (C7C-1, C7C-2, 12–1, 12–2, 12–3 and 12–4) were synthesized, together with a variety of modifications, yielding a total of 25 peptides (Table 1). […] To assess the extent to which these peptide sequences inhibit IDE, we quantified their potency in protease activity assays using recombinant human IDE and two different substrates: FRET1, a fluorogenic peptide, and recombinant human insulin. […]
Ends that are not written are not given here.
property name: IC50 (µM)
Hi! Could you send only the number? It should be in µM, unit omitted.

Reference set (4 entries):
substance="VHWDFRQW-NH2 [P12-1B]" measurement_unit=µM experimental_result=14
substance="WSPISGKFFQRF [P12-4]" measurement_unit=µM experimental_result=2.95
substance="VHWDFRQWWQPS [P12-1]" measurement_unit=µM experimental_result=1.59
substance="WSPISGKFFQRF-NH2 [P12-4A]" measurement_unit=µM experimental_result=5.12

Could you share what IC50 was measured for VHWDFRQWWQPS-NH2 [P12-1A] , tested on IDE (Homo sapiens, UniProt P14735)? 2.51

* * *

molecular target: IDE (Homo sapiens); construct: made in house; host or cells: bacteria; assay: biochemical; conditions: substrate FRET1 5 μM; Ki from IC50 with the Cheng-Prusoff equation; read-out: Ki FRET1
Ends that are not written are not given here.
Listing: pKi of selected substances
When answering, recall that pKi equals minus log10 of the concentration in mol/L, and write that number alone.

substance="QSLPWCYP-NH2 [P12-3B]" property_name=pKi experimental_result=4.41
substance="VHWDFRQWWQPS-NH2 [P12-1A]" property_name=pKi experimental_result=5.30
substance="VHWDFRQWWQPS [P12-1]" property_name=pKi experimental_result=5.11

Could you share what pKi was measured for WSPISGKFFQRF-NH2 [P12-4A] , tested on IDE (Homo sapiens)? 5.38

Could you share what pKi was measured for Ac-FRQWWQPS [P12-1C] , tested on IDE (Homo sapiens)? 3.86

Could you share what pKi was measured for WSPISGKFFQRF [P12-4] , tested on IDE (Homo sapiens)? 5.41

Could you share what pKi was measured for VHWDFRQW-NH2 [P12-1B] , tested on IDE (Homo sapiens)? 4.39

* * *

test: Solubility in assay medium and cell culture medium; type: physicochemical; conditions: cell culture medium; cosmetic-grade P12-3A; read-out: soluble up to
Bridge positions count the residues as written; N and C are the ends. Peptide text beside a SMILES is read from it.
property name: solubility

I am curious: what solubility value has been reported for CC(C)C[C@H](NC(=O)[C@H](CO)NC(=O)[C@@H](N)CCC(N)=O)C(=O)N1CCC[C@H]1C(=O)N[C@@H](Cc1c[nH]c2ccccc12)C(=O)N[C@H]1CSSC[C@@H](C(=O)N[C@H](C(=O)N[C@H](C(N)=O)[C@@H](C)O)C(C)C)NC(=O)[C@H](Cc2c[nH]cn2)NC(=O)[C@@H]2CCCN2C(=O)[C@H](Cc2ccc(O)cc2)NC1=O [P12-3A] (H-QSLPWCYPHCVT-NH2; disulfide 6-10 (inferred)) ? ~100 µM

* * *

Biological target: IDE (Homo sapiens)
Construct: made in house; host or cells: bacteria
Sequence (P14735 1-1019): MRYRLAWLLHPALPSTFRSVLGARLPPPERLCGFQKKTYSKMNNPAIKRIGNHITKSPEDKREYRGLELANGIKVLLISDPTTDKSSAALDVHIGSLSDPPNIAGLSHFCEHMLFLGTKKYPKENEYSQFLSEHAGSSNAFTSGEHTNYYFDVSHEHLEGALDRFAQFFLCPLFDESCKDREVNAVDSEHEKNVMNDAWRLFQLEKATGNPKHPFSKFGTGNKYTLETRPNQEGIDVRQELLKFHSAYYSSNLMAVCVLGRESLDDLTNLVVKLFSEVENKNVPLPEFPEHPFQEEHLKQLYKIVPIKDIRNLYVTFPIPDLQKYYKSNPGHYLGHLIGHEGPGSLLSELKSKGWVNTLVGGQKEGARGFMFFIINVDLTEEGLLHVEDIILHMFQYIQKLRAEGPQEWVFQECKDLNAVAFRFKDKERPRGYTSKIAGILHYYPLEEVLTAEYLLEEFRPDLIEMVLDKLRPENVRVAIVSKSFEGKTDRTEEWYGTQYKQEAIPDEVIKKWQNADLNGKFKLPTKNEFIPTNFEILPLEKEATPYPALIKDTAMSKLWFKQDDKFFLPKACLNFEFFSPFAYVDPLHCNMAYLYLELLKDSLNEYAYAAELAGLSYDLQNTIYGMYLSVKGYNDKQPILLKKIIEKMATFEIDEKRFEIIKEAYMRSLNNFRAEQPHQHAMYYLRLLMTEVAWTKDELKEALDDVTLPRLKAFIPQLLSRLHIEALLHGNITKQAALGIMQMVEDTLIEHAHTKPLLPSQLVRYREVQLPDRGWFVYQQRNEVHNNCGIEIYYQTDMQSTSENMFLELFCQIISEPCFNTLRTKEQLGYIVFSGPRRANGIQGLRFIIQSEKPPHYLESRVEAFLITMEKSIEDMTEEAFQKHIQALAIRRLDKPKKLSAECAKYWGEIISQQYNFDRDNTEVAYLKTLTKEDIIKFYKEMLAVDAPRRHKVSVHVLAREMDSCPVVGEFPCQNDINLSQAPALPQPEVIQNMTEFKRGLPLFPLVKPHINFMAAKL
Assay: Vulnerability of peptides to degradation by IDE: 0 vs 4 h pre-incubation, then FRET1 assay
Assay type: biochemical
Details: 4 h, 4-hr incubation; Cmpd 0.12207 uM; relative to DMSO-only controls; individual runs; read-out: Percent Activity (normalized initial velocity of FRET1 hydrolysis)
Ends that are not written are not given here.
property name: remaining activity at 0.12207 µM (%)
Hi! Could you send only the number? It should be in %, unit omitted.

substance="WSPISGKFFQRF [P12-4]" property_name="remaining activity at 0.12207 µM" experimental_result=89.9
substance="QSLPWCYP-NH2 [P12-3B]" property_name="remaining activity at 0.12207 µM" experimental_result=101
substance="Ac-FRQWWQPS [P12-1C]" property_name="remaining activity at 0.12207 µM" experimental_result=100
substance="WSPISGKFFQRF-NH2 [P12-4A]" property_name="remaining activity at 0.12207 µM" experimental_result=78.9

Could you share what remaining activity at 0.12207 µM was measured for VHWDFRQWWQPS-NH2 [P12-1A] , tested on IDE (Homo sapiens)? 79.1

Could you share what remaining activity at 0.12207 µM was measured for VHWDFRQWWQPS [P12-1] , tested on IDE (Homo sapiens)? 97.5

Could you share what remaining activity at 0.12207 µM was measured for VHWDFRQW-NH2 [P12-1B] , tested on IDE (Homo sapiens)? 90.2

* * *

Target: IDE (Homo sapiens)
Construct: made in house; host or cells: bacteria
Assay: biochemical
Settings: judged as IC50 <100 uM?; individual replicates; read-out: Percent activity at 500 uM, Replicate 1-4
Experimental: The six selected peptide sequences (C7C-1, C7C-2, 12–1, 12–2, 12–3 and 12–4) were synthesized, together with a variety of modifications, yielding a total of 25 peptides (Table 1). […] IDE activity was quantified by monitoring the degradation of Mca-[…](Dnp) (FRET1, 5 μM), fluoresceinated and biotinylated amyloid ß-protein (FAßB; 500 nM) or recombinant human insulin (50 nM) in PBS supplemented with 0.05% BSA. […]
Bridge positions count the residues as written; N and C are the ends. Peptide text beside a SMILES is read from it.
Listing: remaining activity at 500 µM of selected compounds

compound="CC[C@H](C)[C@@H]1NC(=O)[C@H](CO)NC(=O)[C@H](Cc2c[nH]c3ccccc23)NC(=O)[C@H](Cc2c[nH]c3ccccc23)NC(=O)[C@H](CO)NC(=O)[C@@H](NC(=O)[C@H](C)N)CSSC[C@@H](C(=O)NCC(N)=O)NC(=O)[C@H](CC(C)C)NC(=O)[C@H](Cc2c[nH]cn2)NC1=O [C7C-1A] (H-ACSWWSIHLCG-NH2; disulfide 2-10 (inferred))" target_entity="IDE (Homo sapiens)" experimental_result=56.6%

I am curious: what remaining activity at 500 µM value has been reported for CC(C)C[C@@H]1NC(=O)[C@H](Cc2c[nH]cn2)NC(=O)CNC(=O)[C@H](C)NC(=O)[C@H](CC(N)=O)NC(=O)[C@@H](NC(=O)[C@H](C)N)CSSC[C@@H](C(=O)NCC(=O)O)NC(=O)[C@H](CCC(N)=O)NC(=O)[C@H](CO)NC1=O [C7C-2] (H-ACNAGHLSQCG-OH; disulfide 2-10 (inferred)) ? 76.4%

Origin of the recorded values: paper PMC5814047
